test system: SN12C; test: Growth inhibition of human SN12C cells at 10 uM after 48 hrs by sulforhodamine B assay; format: functional; details: read-out: GI
Please provide measured inhibition of growth at 10 µM for the entries that follow.
The reply should contain only the number, in %.

[ask] What inhibition of growth at 10 µM value was documented for this compound, O=C(NS(=O)(=O)c1ccc2nc(-c3ccccc3)c(-c3ccccc3)nc2c1)c1ccccc1 ?
[reply] 17.4

[ask] So what's the measured inhibition of growth at 10 µM for this one? O=S(=O)(Nc1ccccn1)c1ccc2nc(-c3ccccc3)c(-c3ccccc3)nc2c1
[reply] 38.5

[ask] Which inhibition of growth at 10 µM is reported for this compound? COc1ccccc1NS(=O)(=O)c1ccc2nc(-c3ccccc3)c(-c3ccccc3)nc2c1
[reply] 32.6

[ask] Dear colleague, I am looking for the recorded inhibition of growth at 10 µM of the following compound: O=S(=O)(Nc1cccc2ccccc12)c1ccc2nc(-c3ccccc3)c(-c3ccccc3)nc2c1
[reply] 8.87

[ask] Which inhibition of growth at 10 µM is listed for CC(=S)NS(=O)(=O)c1ccc2nc(-c3ccccc3)c(-c3ccccc3)nc2c1 ?
[reply] 2.83

[ask] What inhibition of growth at 10 µM value was documented for this compound, O=S(=O)(Nc1ccc(Cl)cc1)c1ccc2nc(-c3ccccc3)c(-c3ccccc3)nc2c1 ?
[reply] 26.9

[ask] Param item = NC(=S)NNS(=O)(=O)c1ccc2nc(-c3ccccc3)c(-c3ccccc3)nc2c1 ; retrieve measured inhibition of growth at 10 µM.
[reply] 6.98

###

Would you kindly list inhibition of growth at 10 µM for each of these molecules?
tested on: CCRF-CEM; assay: Growth inhibition of human CCRF-CEM cells at 10 uM after 48 hrs by sulforhodamine B assay; format: functional; details: read-out: GI
Could you give me the number in %? Just the number is fine.

[ask] State the recorded inhibition of growth at 10 µM for this entry: COc1ccccc1NS(=O)(=O)c1ccc2nc(-c3ccccc3)c(-c3ccccc3)nc2c1
[reply] 49.8

[ask] Reported inhibition of growth at 10 µM for CC(=S)NS(=O)(=O)c1ccc2nc(-c3ccccc3)c(-c3ccccc3)nc2c1 : what is it?
[reply] 24.8

[ask] Look up inhibition of growth at 10 µM: O=S(=O)(Nc1ccc(Cl)cc1)c1ccc2nc(-c3ccccc3)c(-c3ccccc3)nc2c1
[reply] 61.9

[ask] I would be grateful if you could share the reported inhibition of growth at 10 µM for O=C(NS(=O)(=O)c1ccc2nc(-c3ccccc3)c(-c3ccccc3)nc2c1)c1ccccc1 .
[reply] 41.3

[ask] Quick check: inhibition of growth at 10 µM of O=S(=O)(Nc1cccc2ccccc12)c1ccc2nc(-c3ccccc3)c(-c3ccccc3)nc2c1 ?
[reply] 58.3

[ask] Returns the measured inhibition of growth at 10 µM for the input molecule. Input: O=S(=O)(Nc1ccccn1)c1ccc2nc(-c3ccccc3)c(-c3ccccc3)nc2c1
[reply] 70.7

[ask] inhibition of growth at 10 µM for NC(=S)NNS(=O)(=O)c1ccc2nc(-c3ccccc3)c(-c3ccccc3)nc2c1 ?
[reply] 35.8

###

test system: SF-539; test: Growth inhibition of human SF539 cells at 10 uM after 48 hrs by sulforhodamine B assay; assay type: functional; settings: SF-539, 48 h, read-out: GI
Output Criterion met for inhibition of growth at 10 µM not less than 20%; output Criterion not met otherwise.

[ask] Is the recorded value of inhibition of growth at 10 µM equal to or greater than 20% for this compound? O=S(=O)(Nc1cccc2ccccc12)c1ccc2nc(-c3ccccc3)c(-c3ccccc3)nc2c1
[reply] Criterion not met

[ask] Please check the record O=C(NS(=O)(=O)c1ccc2nc(-c3ccccc3)c(-c3ccccc3)nc2c1)c1ccccc1 and state if its inhibition of growth at 10 µM is at or above 20%.
[reply] Criterion not met

[ask] Does the compound NC(=S)NNS(=O)(=O)c1ccc2nc(-c3ccccc3)c(-c3ccccc3)nc2c1 have recorded inhibition of growth at 10 µM that is 20% or more?
[reply] Criterion met

[ask] Is the recorded value of inhibition of growth at 10 µM equal to or greater than 20% for this compound? O=S(=O)(Nc1ccc(Cl)cc1)c1ccc2nc(-c3ccccc3)c(-c3ccccc3)nc2c1
[reply] Criterion met

[ask] I'd appreciate it if you could say whether COc1ccccc1NS(=O)(=O)c1ccc2nc(-c3ccccc3)c(-c3ccccc3)nc2c1 has inhibition of growth at 10 µM at least equal to 20%.
[reply] Criterion met

[ask] Quick check: does O=S(=O)(Nc1ccccn1)c1ccc2nc(-c3ccccc3)c(-c3ccccc3)nc2c1 have inhibition of growth at 10 µM greater than or equal to 20%?
[reply] Criterion met

[ask] Confirm if inhibition of growth at 10 µM reported for the compound CC(=S)NS(=O)(=O)c1ccc2nc(-c3ccccc3)c(-c3ccccc3)nc2c1 is 20% or above.
[reply] Criterion not met
